// provenance: patent US20210388087A1

Answer each item with its documented fold change of affinity.
target: T1, Human CD137 ECD (human); assay: Biacore SPR, vs parent H183/L072
T1 construct: entry includes C-terminal His-tag and biotin acceptor peptide; also called human CD137 extracellular domain; 4-1BB
T1 sequence (chain, as listed by the source limits assumed): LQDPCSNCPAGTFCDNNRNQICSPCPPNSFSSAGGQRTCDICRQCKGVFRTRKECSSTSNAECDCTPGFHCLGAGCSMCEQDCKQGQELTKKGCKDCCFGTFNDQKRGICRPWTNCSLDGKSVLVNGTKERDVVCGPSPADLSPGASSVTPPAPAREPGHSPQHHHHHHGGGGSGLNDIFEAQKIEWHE
Numbers only, in fold.

Some binders with known fold change of affinity results, for comparison:
* H183/L072 VL T97A (antibody, name in Kabat numbering, V domains shown, Dual-Ig) VH: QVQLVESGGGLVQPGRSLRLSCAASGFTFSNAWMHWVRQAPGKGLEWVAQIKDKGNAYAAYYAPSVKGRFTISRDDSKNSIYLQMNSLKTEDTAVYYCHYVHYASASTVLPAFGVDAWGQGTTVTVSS VL: DIVMTQSPLSLPVTPGEPASISCQASQELVHMNRNTYLHWYQQKPGQAPRLLIYKVSNRFPGVPDRFSGSGSGTDFTLKISRVEAEDVGVYYCAQGTSVPFAFGQGTKLEIK | 0.6
* H183/L072 VL E27aK (antibody, name in Kabat numbering, V domains shown, Dual-Ig) VH: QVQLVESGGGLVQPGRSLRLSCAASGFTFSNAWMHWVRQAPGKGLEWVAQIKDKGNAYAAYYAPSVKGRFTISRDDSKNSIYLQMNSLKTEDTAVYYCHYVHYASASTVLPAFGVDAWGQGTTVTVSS VL: DIVMTQSPLSLPVTPGEPASISCQASQKLVHMNRNTYLHWYQQKPGQAPRLLIYKVSNRFPGVPDRFSGSGSGTDFTLKISRVEAEDVGVYYCAQGTSVPFTFGQGTKLEIK | 0.9
* H183/L072 VL G91Q (antibody, name in Kabat numbering, V domains shown, Dual-Ig) VH: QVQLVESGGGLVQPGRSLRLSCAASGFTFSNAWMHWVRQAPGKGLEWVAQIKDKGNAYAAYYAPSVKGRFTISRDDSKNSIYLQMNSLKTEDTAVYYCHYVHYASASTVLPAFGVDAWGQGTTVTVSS VL: DIVMTQSPLSLPVTPGEPASISCQASQELVHMNRNTYLHWYQQKPGQAPRLLIYKVSNRFPGVPDRFSGSGSGTDFTLKISRVEAEDVGVYYCAQQTSVPFTFGQGTKLEIK | 0

# map each binder to its fold change of affinity
1. H183/L072 VL A89M (antibody, name in Kabat numbering, V domains shown, Dual-Ig) VH: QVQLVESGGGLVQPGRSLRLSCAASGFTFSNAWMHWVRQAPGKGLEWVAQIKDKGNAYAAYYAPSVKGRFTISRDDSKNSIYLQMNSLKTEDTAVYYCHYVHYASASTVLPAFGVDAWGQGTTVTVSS VL: DIVMTQSPLSLPVTPGEPASISCQASQELVHMNRNTYLHWYQQKPGQAPRLLIYKVSNRFPGVPDRFSGSGSGTDFTLKISRVEAEDVGVYYCMQGTSVPFTFGQGTKLEIK
2. H183/L072 VL H27dP (antibody, name in Kabat numbering, V domains shown, Dual-Ig) VH: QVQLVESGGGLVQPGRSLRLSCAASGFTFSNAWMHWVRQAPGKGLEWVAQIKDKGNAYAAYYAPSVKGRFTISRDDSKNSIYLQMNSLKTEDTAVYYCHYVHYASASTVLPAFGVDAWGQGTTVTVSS VL: DIVMTQSPLSLPVTPGEPASISCQASQELVPMNRNTYLHWYQQKPGQAPRLLIYKVSNRFPGVPDRFSGSGSGTDFTLKISRVEAEDVGVYYCAQGTSVPFTFGQGTKLEIK

[out]
1: 0; 2: 0.8
